- EXPERIMENTAL DETAILS: Growth inhibition of human SJCRH30 cells assessed as reduction in cell viability after 48 hrs by SRB assay
- Type: functional
Hi there, I'd appreciate the recorded GI50 for every entry that follows.
Write the answer as a number in nM, unit excluded.

Please look at this compound and report its GI50: `CCCC/C=C\CCCCCCCCCCC[C@H](O)C[C@]1(O)CC(=O)C=C[C@H]1O` 180

Please look at this compound and report its GI50: `CCCC/C=C\CCCCCCCCCCC[C@H](O)Cc1cc(O)ccc1O` 120

Please look at this compound and report its GI50: `CCCC/C=C\CCCCCCCCC[C@H](O)C[C@]1(O)CC(=O)C=C[C@H]1O` 240

Please look at this compound and report its GI50: `CCCC/C=C\CCCCCCCCC[C@H](O)Cc1cc(O)ccc1O` 170

---

- Test system: A2780
- EXPERIMENTAL DETAILS: Cytotoxicity against human A2780 cells assessed as reduction in cell viability
- Format: functional, cell-based
READOUT: IC50

Please look at this compound and report its IC50: `CCCC/C=C\CCCCCCCCCCC[C@@H]1C[C@]2(O)CC(=O)C[C@H](O1)[C@@H]2O` 3 to 30 µM

---

- EXPERIMENTAL DETAILS: Growth inhibition of human D283 cells assessed as reduction in cell viability after 48 hrs by SRB assay
- Format: functional
- MEASUREMENT PARAMETERS: D283, 48 h
Hi there, I'd appreciate the recorded GI50 for every entry that follows.
Write the answer as a number in µM, unit excluded.

Please look at this compound and report its GI50: `CCCC/C=C\CCCCCCCCCCCc1cc2cc(O)ccc2o1` 0.07

Please look at this compound and report its GI50: `CCCC/C=C\CCCCCCCCC[C@H](O)Cc1cc(O)ccc1O` 0.08

Please look at this compound and report its GI50: `CCCC/C=C\CCCCCCCCCCC[C@H](O)C[C@]1(O)CC(=O)C=C[C@H]1O` 0.4

Please look at this compound and report its GI50: `CCCC/C=C\CCCCCCCCCCC[C@H](O)Cc1cc(O)ccc1O` 0.24

Please look at this compound and report its GI50: `CCCC/C=C\CCCCCCCCC[C@H](O)C[C@]1(O)CC(=O)C=C[C@H]1O` 0.41

// data source = ChEMBL document CHEMBL4613254
